I'd be grateful if you could share measured pIC50 for these entries.
Biological target: JAK3 (Homo sapiens, UniProt P52333)
Sequence (P52333 1-1124): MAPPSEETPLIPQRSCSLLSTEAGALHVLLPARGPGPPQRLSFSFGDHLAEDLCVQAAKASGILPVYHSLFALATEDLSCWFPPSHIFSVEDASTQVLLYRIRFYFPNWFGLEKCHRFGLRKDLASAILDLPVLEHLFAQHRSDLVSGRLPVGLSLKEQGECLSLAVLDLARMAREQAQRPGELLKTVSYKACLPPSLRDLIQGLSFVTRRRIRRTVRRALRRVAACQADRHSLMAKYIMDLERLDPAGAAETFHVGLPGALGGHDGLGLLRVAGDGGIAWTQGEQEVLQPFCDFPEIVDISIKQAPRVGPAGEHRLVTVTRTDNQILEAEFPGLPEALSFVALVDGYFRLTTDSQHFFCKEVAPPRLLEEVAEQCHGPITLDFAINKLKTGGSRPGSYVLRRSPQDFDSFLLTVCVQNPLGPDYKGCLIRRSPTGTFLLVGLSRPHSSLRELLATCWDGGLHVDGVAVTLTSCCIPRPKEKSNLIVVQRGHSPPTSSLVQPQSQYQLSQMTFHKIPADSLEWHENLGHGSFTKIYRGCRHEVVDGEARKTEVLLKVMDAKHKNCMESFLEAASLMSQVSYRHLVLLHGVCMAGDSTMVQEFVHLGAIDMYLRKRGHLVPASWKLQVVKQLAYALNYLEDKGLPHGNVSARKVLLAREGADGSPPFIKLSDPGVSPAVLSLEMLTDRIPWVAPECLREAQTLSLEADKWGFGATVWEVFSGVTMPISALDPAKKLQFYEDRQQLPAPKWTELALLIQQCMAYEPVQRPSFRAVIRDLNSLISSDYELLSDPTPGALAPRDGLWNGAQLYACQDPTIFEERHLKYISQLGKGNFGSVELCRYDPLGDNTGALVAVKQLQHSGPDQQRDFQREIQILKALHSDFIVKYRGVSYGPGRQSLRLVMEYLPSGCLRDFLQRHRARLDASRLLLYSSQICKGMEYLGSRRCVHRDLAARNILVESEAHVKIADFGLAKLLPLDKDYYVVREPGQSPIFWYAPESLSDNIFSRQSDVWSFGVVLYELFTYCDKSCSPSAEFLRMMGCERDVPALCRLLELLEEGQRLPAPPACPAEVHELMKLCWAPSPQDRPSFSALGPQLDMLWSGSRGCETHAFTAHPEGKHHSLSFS
Assay: Z'-LYTE enzyme activity assay (SelectScreen Kinase Profiling), JAK3
Conditions: IC50 JAK3, ATP at app. Km
Expect pIC50 as a plain number equal to -log10 of the molar concentration.

(Q) State, in one line, measured pIC50 of `N#CCC1(n2cc(-c3ncnc4[nH]ccc34)cn2)CS(=O)(=O)C1`
(A) 7.98

(Q) State, in one line, measured pIC50 of `CCS(=O)(=O)N1CCC2(CC1)CCC(CC#N)(n1cc(-c3ncnc4[nH]ccc34)cn1)CC2`
(A) 7.91

(Q) State, in one line, measured pIC50 of CS(=O)(=O)C1CC(CC#N)(n2cc(-c3ncnc4[nH]ccc34)cn2)C1 (centres unmarked)
(A) 7.89

(Q) State, in one line, measured pIC50 of N#CCC1(n2cc(-c3ncnc4[nH]ccc34)cn2)CC2(CC(NS(=O)(=O)C(F)(F)F)C2)C1 (centres unmarked)
(A) 8.19

(Q) State, in one line, measured pIC50 of CC(C)(C)NS(=O)(=O)NC1CC2(C1)CC(CC#N)(n1cc(-c3ncnc4[nH]ccc34)cn1)C2 (centres unmarked)
(A) 7.95
